# System: A673/TR/shEF
# procedureDetails: cell viability (LOESS-normalised, relative to median of negative controls) (log2 ratio); higher = more viable cells (less compound effect), active = hit call of the paper (over 3 MAD below the median)
# assaySetup: 2.5 µM; library screen: screen1; EWS-FLI1 expression: low (doxycycline-induced shRNA knockdown); treatment time: 72 h
About 300 (9.4%) of roughly 3,200 compounds showed activity. The sample as a whole holds a higher share of actives than the screen did.
Mark one answer only. Choices: active, inactive

Status in this test for Cc1cc(N)c2ccccc2[n+]1CCCCCCCCCC[n+]1c(C)cc(N)c2ccccc21 ?
active

What did this assay record as the result for CC1=C2C(=CO[C@H](C)[C@H]2C)C(=O)C(C(=O)O)=C1O ?
inactive

For this compound, state the assay outcome: CN1CCN(CC(=O)N2c3ccccc3Sc3ccccc32)CC1
inactive

Short answer needed: outcome of this test for c1ccc([C@H]2CN3CCSC3=N2)cc1 ?
inactive

What call does the record list for CC(C)CCCC(C)C1CCC2C3CCC4CC(=O)CCC4(C)C3CCC12C (centres undefined) ?
inactive

Test call, this compound: CCOc1ccc(C(=O)Nc2ccc(NC(=O)CC)cc2)cc1Cl
inactive

Dear colleague, could you share the recorded outcome for COc1ccccc1/C=C/c1nc(O)c([N+](=O)[O-])c(=O)[nH]1 when you have a moment?
inactive

Which outcome did this test record for the compound C[C@@H]1C[C@H]2[C@@H]3C[C@H](F)C4=CC(=O)C=C[C@]4(C)[C@@]3(F)[C@@H](O)C[C@]2(C)[C@H]1C(=O)COC(=O)C(C)(C)C ?
inactive

Test call, this compound: COc1ccc2c(c1)O[C@@H]1c3ccc(OC)cc3OC[C@H]21
inactive

Record lookup: outcome of this test for CC(=O)O[C@H]1CC[C@@]2(C)C(CC[C@]3(C)C2C(=O)C=C2C4[C@@H](C)[C@H](C)CC[C@]4(C(=O)O)CC[C@]23C)C1(C)C (some centres undefined) ?
inactive

Would you mind telling me which call this test gave CS(=O)(=O)Nc1ccc([N+](=O)[O-])cc1Oc1ccccc1 ?
inactive

For O=C(O)c1cc(O)ccc1O , what call appears in the results of this test?
inactive

Which outcome did this test record for the compound CCCN(CCC)C(=O)C(CCC(=O)O)NC(=O)c1ccccc1 (centres undefined) ?
inactive

Please state the recorded outcome for this compound: COc1cccc(CN2CCN(Cc3c[nH]c4ccccc34)CC2)c1
inactive

Called result for C[C@H]1C(=O)CC[C@@H]2[C@]1(C)CC[C@H]1[C@@]2(C)CC[C@@]2(C)[C@@H]3CC(C)(C)CC[C@]3(C)CC[C@]12C
inactive

Please state the recorded outcome for this compound: Clc1ccc(CN2CCN(Cc3c[nH]c4ccccc34)CC2)cc1
inactive

Give the logged outcome of this assay for the following compound: C=C1C(=O)OC2CC1C(OC(C)=O)C/C(C)=C/CC/C(C)=C\CCC2(C)O (centres undefined)
inactive

# outcome recorded in this test, key = CC(C)(O)[C@H]1CC[C@]2(C)[C@H]3CC[C@@H]4[C@@]5(C)CCCC(C)(C)[C@@H]5[C@@H](O)C[C@@]4(C)[C@]3(C)CC[C@@H]12
inactive

Please indicate how the test categorized CC(=O)Oc1cc(OC(C)=O)c2c(c1)OC(c1ccc(OC(C)=O)c(OC(C)=O)c1)C(OC(C)=O)C2 (centres undefined) .
inactive

Could you check what this test reported for O=C1/C(=C\c2ccccc2F)SC(=S)N1CN1CCOCC1 ?
inactive

Assay outcome for Cc1cccc(-n2ncc3c(N4CCCC4)ncnc32)c1 : what was it?
inactive

Any idea what this test logged for CC1Cc2ccccc2N1C(=S)Nc1ccc2nccnc2c1 (centres undefined) ?
inactive

Per the assay record, what outcome was assigned to O=c1[nH]cc(F)c(=O)[nH]1 ?
inactive

How was O=C(O)c1cc(NCc2cc(O)ccc2O)ccc1O classified in this test?
inactive

Hi team, can someone confirm the assay call for COc1ccc(CN2CCN(Cc3ccc(OC)c(OC)c3OC)CC2)cc1OC ?
inactive

Write down the call the test reported for this compound. Item: CC(C)=CCC/C(C)=C/C=C/C(C)=C/C=C/C(C)=C/C=C/C=C(C)/C=C/C=C(C)/C=C/C=C(\C)CCC=C(C)C
inactive

Entry O=C(O)c1ccc2c(c1)OCO2 : call = ?
inactive

What did this assay record as the result for COc1ccc(OC)c(CN2CCN(Cc3ccccc3OC)CC2)c1 ?
inactive

GET /call?item= CC1(C)OC(=O)C=C[C@@]2(C)C1C[C@@H](O)[C@]1(C)C2CC[C@@]2(C)[C@H](c3ccoc3)OC(=O)C3OC321 (some centres undefined) returns the recorded outcome of this test.
inactive

Called result for CC(=O)O[C@H]1CC[C@@]2(C)[C@@H](CC[C@@H]3[C@@H]2CC[C@]2(C)[C@@H]4[C@H](C[C@@H]32)O[C@]2(CC[C@@H](C)CO2)[C@H]4C)C1
inactive

Outcome? COc1ccc(-c2coc3cc(O)ccc3c2=O)cc1
inactive

Which outcome did this test record for the compound COc1cccc2c1CCC1CC(=O)CC[C@]21C (some centres undefined) ?
inactive

Please state the recorded outcome for this compound: C=C(C)Cn1c(COc2ccc(Cl)cc2Cl)n[nH]c1=S
inactive

Each compound tested received a call. Report the one for CC(=O)O[C@@H]1CC2C(C)(C)C(=O)CC[C@]2(C)C2CC[C@]3(C)C(=CC(=O)O[C@H]3c3ccoc3)[C@@]21C (some centres undefined) .
inactive

How was COC1=CC(=O)OC(CCc2ccc(OC)c(OC)c2)C1 (centres undefined) classified in this test?
inactive

Could you check what this test reported for COC(=O)[C@H]1[C@H]2C[C@H]3c4[nH]c5cc(OC)ccc5c4CCN3C[C@H]2C[C@@H](OC(=O)c2cc(OC)c(OC)c(OC)c2)[C@@H]1OC ?
inactive

Hello, I am checking results. What call was entered for O=C(C=Cc1ccccc1)c1ccccc1O ?
inactive

What classification did O=C(O[C@@H]1Cc2c(O)cc(O)cc2O[C@@H]1c1cc(O)c(O)c(O)c1-c1c([C@H]2Oc3cc(O)cc(O)c3C[C@H]2O)cc(O)c(O)c1O)c1cc(O)c(O)c(O)c1 end up with in this test?
inactive

Could you please tell me the result logged for CC(=O)Oc1cc2c(c(C)c1OC(C)=O)CC=C1[C@@]2(C)CC[C@@]2(C)[C@@H]3C[C@](C)(C(=O)O)CC[C@]3(C)CC[C@]12C in this assay?
inactive
